The reported measurements were obtained from PubChem BioAssay (NCI).

I'd appreciate it if you could supply TGI values for the items below.
System: IGROV1 ovarian
EXPERIMENTAL DETAILS: NCI tumour cell line growth inhibition, 48 h

Field TGI (entry CCCCCCCOc1c(OC)cc(C2CC(=O)Nc3c2c(C)nn3-c2nc3ccccc3[nH]2)cc1OC (centres undefined) ) reads 10.1 µM

Recorded TGI (compound COC1=CC(=O)c2c(O)c3c(c(O)c2C1=O)C=C(C)OC3O (centres undefined) ): 5.57 µM

Memo: COc1cc(C2C3=C(COC3=O)Nc3cc4c(cc32)CCC4)cc2c1OCO2 (centres undefined) , reported TGI: 17.1 µM

TGI reading for CCC(=O)N(O)C(C)(C)C : > 100 µM

compound CCCc1cc(=O)n2c(C(=O)Nc3ccccc3OC)c(C(=O)Nc3ccc(F)cc3)sc2n1 , TGI observed: 46.2 µM

Consider C=C1CCC2C3(C)COC(c4ccccc4Br)OC3CCC2(C)C1C/C=C1/C(=O)OCC1OC(C)=O (centres undefined) . Its measured TGI is 2.48 µM

Lab note: measured TGI of CS(=O)(=O)Nc1ccc(N=Cc2c(O)[nH]c3ccccc23)cc1 was > 25 µM

get_value(item= O=C(CCCN1CCC2(CC1)CC(=O)N(N1CCCCCC1)C2=O)c1ccc(F)cc1 , readout=TGI) returns > 100 µM

Noted for CC12CC(OC(=O)[C@]1(C)O)[C@@H]([C@]1(O)CC[C@H]3[C@@H]4C[C@H]5O[C@]56[C@@H](O)C=CC(=O)[C@]6(C)[C@H]4CC[C@@]31C)C2 (some centres undefined) : its TGI reads 35.1 µM
